Measured values drawn from patent US20240270826A1 for this set.

// pIC50 lookup, one value per entry
Tested on: Human SARS-CoV-2 Omicron (B.1.1.529) S (SARS-CoV-2 (Omicron variant))
Experimental protocol: flow cytometry SVNA: VHH-Fc inhibits S binding to ACE2 on Vero E6 cells
pIC50: −log10 of the molar value.

>  <Binder>
NRCoV2-11 VHH-Fc (Fc fusion, bivalent VHH-Fc) EVQLVSSGGGLVQPGGSLRLSCAASGSSLDSYSVSWFRQAPGKEREWISFISRYYSSTYYTDSVKGRFTTSRDGDQKTVHLQMNSLKPEDTAVYYCAARSRDFSSPFSATDTYTSWGQGTQVTVSS

>  <pIC50>
8.06

$$$$
>  <Binder>
NRCoV2-15 VHH-Fc (Fc fusion, bivalent VHH-Fc) EVQLVSSGGGLVEAGGSLRLSCIASGSTSGRNTMGWFRQAPGKQREWVAIVSTSGATNYAGSVKGRFTLSRDNAKNAVYLQMNNLKPEDTAVYYCYAAYGGGGDYWGQGTQVTVSS

>  <pIC50>
8.52

$$$$
>  <Binder>
NRCoV2-14 VHH-Fc (Fc fusion, bivalent VHH-Fc) EVQLVSSGGGLVQAGGSLRLSCEASGTTFSHYAVGWYRQAPGKQREWVASISVFGSTTYGGSVAGRFTISRDNDKNTVDLQMNSLKPEDTAVYYCHAVNADIGGDYWGQGTQVTVSS

>  <pIC50>
8.28

$$$$
>  <Binder>
NRCoV2-17 VHH-Fc (Fc fusion, bivalent VHH-Fc) EVQLQQSGGGLVQTGGSLRLSCAAAGSPFSQLAMSWYRQISGKERAWVASISPTGNRSYSKIAKGRFTISRDNAKNTVTLQMTSLKPEDTAAYICQAANVNGGDYWGQGTQVTVSS

>  <pIC50>
8.47

$$$$
>  <Binder>
NRCoV2-20 VHH-Fc (Fc fusion, bivalent VHH-Fc) EVQLQQSGGGLVQPGGSLRLSCAASGRTFSNYVVGWFRQAPQAPGKDHEFVAVISGSDTETYYADSVKGRFTISRDNAKNTVYLQMNSLKPEDTAVYYCAADRGMSYYYTRATEYYYWGQGTQVTVSS

>  <pIC50>
7.88

$$$$
>  <Binder>
NRCoV2-12 VHH-Fc (Fc fusion, bivalent VHH-Fc) EVQLQQSGGGLVQAGGSLRLSCAASGRTFRNYVMGWFRQAPQAPGKDHEFVAAISWGGTEIYYADSVKGRFTISRDNAKNTVYLQMNSLKPEDTAVYYCAADRGLSYYYTRTTEYNYWGQGTQVTVSS

>  <pIC50>
7.76

$$$$
>  <Binder>
NRCoV2-10 VHH-Fc (Fc fusion, bivalent VHH-Fc) QLQLQESGGGLVQPGGSLTLSCAASGNTFSRSNMHWYRQAPGAQREWVAAISSRGISTYAYSAKGRFTISRDNAKNTVSLQMNSLKPEDTAVYYCYAADDLGDYWGQGTQVTVSS

>  <pIC50>
8.37

$$$$
>  <Binder>
NRCoV2-SR01 VHH-Fc (Fc fusion, bivalent VHH-Fc) EVQLVQSGGGSVQAGGSLRLSCVASGFTFDNYAIGWFRQAPGKEREGVSCISGNGGVTIYADSVKGRFTISRDNAKNLVYLQMNSLKPEDTAVYYCAATGIRSTWSVYGCSRLAGPYDYWGQGTQVTVSS

>  <pIC50>
8.36

$$$$
>  <Binder>
NRCoV2-04 VHH-Fc (Fc fusion, bivalent VHH-Fc) AVQLVDSGGGLVQPGGSLRLSCAASGSPFSNVVMAWYRQAPGKQRERVAFISGGGIADYIMSVKGRFTISRDNAKNTVYLQMNSLKPEDTAVYYCWSSYESTWGQGTQVTVSS

>  <pIC50>
7.74

$$$$
